Every entry's value here was drawn from ChEMBL document CHEMBL1124554.

assay: Half-life in phosphate buffer (0.05 M, mu = 0.15) at 30 degree Celsius and pH 7.45; assay type: ADME
Test readout: half-life (min)
Express your answer in min, writing the number without its unit.

I am curious: what half-life value has been reported for COc1cccc(OC)c1C(=O)NC1C(=O)N2C1SC(C)(C)[C@@H]2C(=O)OCOC(=O)C1=CN(C)C=CC1 (stereo partly specified) ?
134

----------
test: Half-life in phosphate buffer (0.05 M, mu = 0.15) at 30 degree Celsius with pH 7.73; type: ADME
Test readout: half-life (min)
Express your answer in min, writing the number without its unit.

>>> result("Cc1onc(-c2ccccc2Cl)c1C(=O)NC1C(=O)N2C1SC(C)(C)[C@@H]2C(=O)OCOC(=O)c1ccc[n+](C)c1.[I-] (some centres undefined)")
2.1
>>> result("Cc1onc(-c2ccccc2)c1C(=O)NC1C(=O)N2C1SC(C)(C)[C@@H]2C(=O)OCOC(=O)c1ccc[n+](C)c1.[I-] (some centres undefined)")
1.9
>>> result("COc1cccc(OC)c1C(=O)NC1C(=O)N2C1SC(C)(C)[C@@H]2C(=O)OCOC(=O)c1ccc[n+](C)c1.[I-] (some centres undefined)")
2

Next compound, please.
I am curious: what half-life value has been reported for Cc1onc(-c2c(Cl)cccc2Cl)c1C(=O)NC1C(=O)N2C1SC(C)(C)[C@@H]2C(=O)OCOC(=O)c1ccc[n+](C)c1.[I-] (some centres undefined) ?
2.9

----------
test: Half-life in phosphate buffer (0.05 M, mu = 0.15) at 30 degree Centigrade with pH 6.88; format: ADME
Test readout: half-life (min)
Express your answer in min, writing the number without its unit.

Record excerpt, results attached:
>>> result("Cc1onc(-c2ccccc2)c1C(=O)NC1C(=O)N2C1SC(C)(C)[C@@H]2C(=O)OCOC(=O)c1ccc[n+](C)c1.[I-] (some centres undefined)")
10.3
>>> result("Cc1onc(-c2c(Cl)cccc2Cl)c1C(=O)NC1C(=O)N2C1SC(C)(C)[C@@H]2C(=O)OCOC(=O)c1ccc[n+](C)c1.[I-] (some centres undefined)")
14.7
>>> result("Cc1onc(-c2ccccc2Cl)c1C(=O)NC1C(=O)N2C1SC(C)(C)[C@@H]2C(=O)OCOC(=O)c1ccc[n+](C)c1.[I-] (some centres undefined)")
11.3

Next compound, please.
I am curious: what half-life value has been reported for COc1cccc(OC)c1C(=O)NC1C(=O)N2C1SC(C)(C)[C@@H]2C(=O)OCOC(=O)c1ccc[n+](C)c1.[I-] (some centres undefined) ?
12

----------
Recorded half-life for the following molecules
assay: Half-life in phosphate buffer (0.05 M, mu = 0.15) at 30 degree Celsius with pH 8.05; format: ADME
Express your answer in min, writing the number without its unit.

Record excerpt, results attached:
>>> result("Cc1onc(-c2ccccc2)c1C(=O)NC1C(=O)N2C1SC(C)(C)[C@@H]2C(=O)OCOC(=O)c1ccc[n+](C)c1.[I-] (stereo partly drawn)")
1.1
>>> result("Cc1onc(-c2ccccc2Cl)c1C(=O)NC1C(=O)N2C1SC(C)(C)[C@@H]2C(=O)OCOC(=O)c1ccc[n+](C)c1.[I-] (stereo partly drawn)")
1

Next molecule, please.
I am curious: what half-life value has been reported for COc1cccc(OC)c1C(=O)NC1C(=O)N2C1SC(C)(C)[C@@H]2C(=O)OCOC(=O)c1ccc[n+](C)c1.[I-] (stereo partly drawn) ?
1

----------
test: Lipophilicity was determined by reversed-phase HPLC; settings: extrapolated to 100% water
Decide using Log k alone. Strictly below 2: y. Equal to or above 2: n.

Known results for molecules:
>>> class_label("Cc1onc(-c2ccccc2Cl)c1C(=O)NC1C(=O)N2C1SC(C)(C)[C@@H]2C(=O)[O-].[Na+] (stereo partly drawn)")
"n"
>>> class_label("Cc1onc(-c2ccccc2Cl)c1C(=O)NC1C(=O)N2C1SC(C)(C)[C@@H]2C(=O)OCOC(=O)C1=CN(C)C=CC1 (stereo partly drawn)")
"n"

Record Cc1onc(-c2ccccc2)c1C(=O)N[C@@H]1C(=O)N2[C@@H]1SC(C)(C)[C@@H]2C(=O)[O-].[Na+] : is its Log k strictly below 2?
y

Thanks! And Cc1onc(-c2ccccc2)c1C(=O)NC1C(=O)N2C1SC(C)(C)[C@@H]2C(=O)OCOC(=O)C1=CN(C)C=CC1 (stereo partly drawn) ?
n

----------
assay: Half-life in phosphate buffer (0.05 M, mu = 0.15) at 30 degree Celsius and pH 6.15; type: ADME
Test readout: half-life (h)
Express your answer in h, writing the number without its unit.

I am curious: what half-life value has been reported for COc1cccc(OC)c1C(=O)NC1C(=O)N2C1SC(C)(C)[C@@H]2C(=O)OCOC(=O)C1=CN(C)C=CC1 (stereo partly specified) ?
2.17

----------
Recorded half-life for the following compounds
experiment: Half-life in phosphate buffer (0.05 M, mu = 0.15) at 30 degree Celsius with pH 8.14; assay type: ADME

Record excerpt, results attached:
>>> result("COc1cccc(OC)c1C(=O)NC1C(=O)N2C1SC(C)(C)[C@@H]2C(=O)OCOC(=O)C1=CN(C)C=CC1 (some centres undefined)")
"0.928 h"
>>> result("Cc1onc(-c2c(Cl)cccc2Cl)c1C(=O)NC1C(=O)N2C1SC(C)(C)[C@@H]2C(=O)OCOC(=O)C1=CN(C)C=CC1 (some centres undefined)")
"9.97 h"
>>> result("Cc1onc(-c2ccccc2)c1C(=O)NC1C(=O)N2C1SC(C)(C)[C@@H]2C(=O)OCOC(=O)C1=CN(C)C=CC1 (some centres undefined)")
"1.67 h"

I am curious: what half-life value has been reported for Cc1onc(-c2ccccc2Cl)c1C(=O)NC1C(=O)N2C1SC(C)(C)[C@@H]2C(=O)OCOC(=O)C1=CN(C)C=CC1 (some centres undefined) ?
2.74 h

----------
Recorded half-life for the following compounds
assay: Half-life at pH 7.4 in rat 10% brain homogenate; type: ADME
Express your answer in min, writing the number without its unit.

I am curious: what half-life value has been reported for Cc1onc(-c2ccccc2Cl)c1C(=O)NC1C(=O)N2C1SC(C)(C)[C@@H]2C(=O)OCOC(=O)c1ccc[n+](C)c1.[I-] (stereo partly drawn) ?
1.1

Thanks! And Cc1onc(-c2ccccc2)c1C(=O)NC1C(=O)N2C1SC(C)(C)[C@@H]2C(=O)OCOC(=O)c1ccc[n+](C)c1.[I-] (stereo partly drawn) ?
1.2

Thanks! And Cc1onc(-c2c(Cl)cccc2Cl)c1C(=O)NC1C(=O)N2C1SC(C)(C)[C@@H]2C(=O)OCOC(=O)C1=CN(C)C=CC1 (stereo partly drawn) ?
12.6

Thanks! And COc1cccc(OC)c1C(=O)NC1C(=O)N2C1SC(C)(C)[C@@H]2C(=O)OCOC(=O)c1ccc[n+](C)c1.[I-] (stereo partly drawn) ?
1.1

Thanks! And COc1cccc(OC)c1C(=O)NC1C(=O)N2C1SC(C)(C)[C@@H]2C(=O)OCOC(=O)C1=CN(C)C=CC1 (stereo partly drawn) ?
8

Thanks! And Cc1onc(-c2c(Cl)cccc2Cl)c1C(=O)NC1C(=O)N2C1SC(C)(C)[C@@H]2C(=O)OCOC(=O)c1ccc[n+](C)c1.[I-] (stereo partly drawn) ?
1

Thanks! And Cc1onc(-c2ccccc2)c1C(=O)NC1C(=O)N2C1SC(C)(C)[C@@H]2C(=O)OCOC(=O)C1=CN(C)C=CC1 (stereo partly drawn) ?
5.4

Thanks! And Cc1onc(-c2ccccc2Cl)c1C(=O)NC1C(=O)N2C1SC(C)(C)[C@@H]2C(=O)OCOC(=O)C1=CN(C)C=CC1 (stereo partly drawn) ?
10

----------
test: Concentration of compound after 5 minutes in rabbit blood; type: ADME, organism-based, Oryctolagus cuniculus
Test readout: concentration at 5 min (ng/mL)
Express your answer in ng/mL, writing the number without its unit.

I am curious: what concentration at 5 min value has been reported for Cc1onc(-c2ccccc2)c1C(=O)N[C@@H]1C(=O)N2[C@@H]1SC(C)(C)[C@@H]2C(=O)[O-].[Na+] ?
15300

----------
assay: Half-life at pH 7.4 in rat blood; type: ADME, organism-based
Test readout: half-life (s)
Express your answer in s, writing the number without its unit.

Record excerpt, results attached:
>>> result("COc1cccc(OC)c1C(=O)NC1C(=O)N2C1SC(C)(C)[C@@H]2C(=O)OCOC(=O)C1=CN(C)C=CC1 (stereo partly drawn)")
12
>>> result("Cc1onc(-c2ccccc2Cl)c1C(=O)NC1C(=O)N2C1SC(C)(C)[C@@H]2C(=O)OCOC(=O)c1ccc[n+](C)c1.[I-] (stereo partly drawn)")
36

I am curious: what half-life value has been reported for Cc1onc(-c2ccccc2Cl)c1C(=O)NC1C(=O)N2C1SC(C)(C)[C@@H]2C(=O)OCOC(=O)C1=CN(C)C=CC1 (stereo partly drawn) ?
228

Thanks! And Cc1onc(-c2ccccc2)c1C(=O)NC1C(=O)N2C1SC(C)(C)[C@@H]2C(=O)OCOC(=O)c1ccc[n+](C)c1.[I-] (stereo partly drawn) ?
42

Thanks! And Cc1onc(-c2ccccc2)c1C(=O)NC1C(=O)N2C1SC(C)(C)[C@@H]2C(=O)OCOC(=O)C1=CN(C)C=CC1 (stereo partly drawn) ?
66

Thanks! And COc1cccc(OC)c1C(=O)NC1C(=O)N2C1SC(C)(C)[C@@H]2C(=O)OCOC(=O)c1ccc[n+](C)c1.[I-] (stereo partly drawn) ?
60

Thanks! And Cc1onc(-c2c(Cl)cccc2Cl)c1C(=O)NC1C(=O)N2C1SC(C)(C)[C@@H]2C(=O)OCOC(=O)c1ccc[n+](C)c1.[I-] (stereo partly drawn) ?
42

Thanks! And Cc1onc(-c2c(Cl)cccc2Cl)c1C(=O)NC1C(=O)N2C1SC(C)(C)[C@@H]2C(=O)OCOC(=O)C1=CN(C)C=CC1 (stereo partly drawn) ?
246
